TARGET: hM5 (Homo sapiens, UniProt P08912)
Construct: expressed in transfected cells
PROTOCOL DESCRIPTION: Calcium mobilization concentration-response (IC50 vs EC80 acetylcholine), CHO hM5
Assay type: cell-based
ASSAY CONDITIONS: CELL LINE hM5; vs EC80 acetylcholine; read-out: IC50
pIC50: −log10 of the molar value.
Cut-off 7 on pIC50, inclusive. At or above means 1; below means 0.

Query: Check the entry Cc1c(S(=O)(=O)N2CCC(F)(c3cn4ncnc4cc3F)CC2)cnn1C [Compound 501] : does pIC50 equal or exceed 7?
Result: 0

Query: Check the entry CO[C@@H]1CN(S(=O)(=O)c2cnn(C)c2C)CC[C@H]1c1cn2ncnc2cc1C (racemic) [Compound 411] : does pIC50 equal or exceed 7?
Result: 0

Query: Check the entry [2H]C([2H])([2H])Oc1c(S(=O)(=O)N2CCC(c3cn4ncnc4cc3C)CC2)cnn1C [Compound 612] : does pIC50 equal or exceed 7?
Result: 1

----------
TARGET: hM5 (Homo sapiens)
Construct: expressed in transfected cells
PROTOCOL DESCRIPTION: Calcium mobilization concentration-response (IC50 vs EC80 acetylcholine), CHO hM5
Format: cell-based
ASSAY CONDITIONS: CELL LINE hM5; vs EC80 acetylcholine; read-out: IC50
pIC50: −log10 of the molar value.
Cut-off 7 on pIC50, inclusive. At or above means Y; below means N.

Query: Check the entry Cc1cc(C(F)(F)F)ncc1C1CCN(S(=O)(=O)c2cnc(C)n2C)CC1 [Compound 396] : does pIC50 equal or exceed 7?
Result: N

Query: Check the entry Cc1cc2ncnn2cc1C1CCN(S(=O)(=O)c2cnn(C)c2CN2Cc3ncccc3C2=O)CC1 [Compound 597] : does pIC50 equal or exceed 7?
Result: N

Query: Check the entry Cc1c(C2CCN(S(=O)(=O)c3cnn(C)c3C#N)CC2)cn2ncnc2c1F [Compound 438] : does pIC50 equal or exceed 7?
Result: Y

Query: Check the entry Cc1nc2n(c1C1CCN(S(=O)(=O)c3cnn(C)c3C)CC1)CCCC2 [Compound 464] : does pIC50 equal or exceed 7?
Result: N

Query: Check the entry Cc1cc(N(C)C)ncc1C1CCN(S(=O)(=O)c2cnn(C)c2Cl)CC1 [Compound 551] : does pIC50 equal or exceed 7?
Result: Y

Query: Check the entry [2H]C1([2H])CC(c2cn3ncnc3cc2F)CC([2H])([2H])N1S(=O)(=O)c1cc(C)ns1 [Compound 528] : does pIC50 equal or exceed 7?
Result: N

Query: Check the entry CCc1cc2ncnn2cc1C1CCN(S(=O)(=O)c2cn(C)nn2)CC1 [Compound 562] : does pIC50 equal or exceed 7?
Result: N

Query: Check the entry [2H]C1([2H])CC(c2cn3ncnc3c(F)c2C)CC([2H])([2H])N1S(=O)(=O)c1cc(C)ns1 [Compound 527] : does pIC50 equal or exceed 7?
Result: Y

Query: Check the entry Cn1ncc(S(=O)(=O)N2CC=C(c3c4ccccc4nn3C)CC2)c1Cl [Compound 489] : does pIC50 equal or exceed 7?
Result: N

Query: Check the entry Cc1cc(S(=O)(=O)N2CCC(c3cn4ncnc4cc3C(F)F)CC2)sn1 [Compound 494] : does pIC50 equal or exceed 7?
Result: Y

Query: Check the entry Cc1cc2nccnc2cc1C1CCN(S(=O)(=O)c2cnn3c2OCCC3)CC1 [Compound 426] : does pIC50 equal or exceed 7?
Result: Y

Query: Check the entry Cc1cc(S(=O)(=O)N2CCC(c3nn4ncnc4cc3C)CC2)sn1 [Compound 487] : does pIC50 equal or exceed 7?
Result: N

Query: Check the entry Cc1cc2ncnn2cc1C1CCN(S(=O)(=O)c2cn(C)nn2)CC1 [Compound 572] : does pIC50 equal or exceed 7?
Result: Y

Query: Check the entry Cc1ncc(S(=O)(=O)N2CCC(c3ccc4ncnn4c3)CC2)s1 [Compound 480] : does pIC50 equal or exceed 7?
Result: N

Query: Check the entry O=S(=O)(c1cnn2c1OCCC2)N1CCC(F)(c2cn3ncnc3cc2F)CC1 [Compound 506] : does pIC50 equal or exceed 7?
Result: N

Query: Check the entry Cc1c(C2CCN(S(=O)(=O)c3cnc(Cl)s3)CC2)cn2ncnc2c1F [Compound 534] : does pIC50 equal or exceed 7?
Result: N

Query: Check the entry [2H]C1([2H])CC(c2cn3ncnc3cc2C)CC([2H])([2H])N1S(=O)(=O)c1cnc(C)o1 [Compound 568] : does pIC50 equal or exceed 7?
Result: Y

Query: Check the entry Cn1ncc(S(=O)(=O)N2CCC(F)(c3cn4ncnc4cc3F)CC2)c1Cl [Compound 502] : does pIC50 equal or exceed 7?
Result: N

Query: Check the entry Cc1c(C2CCN(S(=O)(=O)c3cnn4ccccc34)CC2)cn2ncnc2c1F [Compound 545] : does pIC50 equal or exceed 7?
Result: Y

Query: Check the entry Cc1cc2ncccc2cc1C1CCN(S(=O)(=O)c2c(C)nn(C)c2C(F)(F)F)CC1 [Compound 445] : does pIC50 equal or exceed 7?
Result: N

Query: Check the entry O=S(=O)(c1cnc(Cl)s1)N1CCC(c2cn3ncnc3cc2C(F)F)CC1 [Compound 516] : does pIC50 equal or exceed 7?
Result: N

Query: Check the entry O=S(=O)(c1cnc(Cl)s1)N1CCC(c2cn3ncnc3cc2Cl)CC1 [Compound 532] : does pIC50 equal or exceed 7?
Result: N

Query: Check the entry O=S(=O)(c1cnn2c1CCC2)N1CCC(F)(c2cn3ncnc3cc2F)CC1 [Compound 505] : does pIC50 equal or exceed 7?
Result: N

Query: Check the entry Cc1ncc(S(=O)(=O)N2CCC(c3cn4ccnc4cc3C)CC2)o1 [Compound 582] : does pIC50 equal or exceed 7?
Result: N

Query: Check the entry Cc1cc2ncnn2cc1C1(F)CCN(S(=O)(=O)c2cnn(C)c2Cl)CC1 [Compound 419] : does pIC50 equal or exceed 7?
Result: Y

Query: Check the entry Cc1cc2ncnn2cc1C1CCN(S(=O)(=O)c2conc2C)CC1 [Compound 499] : does pIC50 equal or exceed 7?
Result: N

----------
TARGET: hM5 (Homo sapiens)
Construct: expressed in transfected cells
Sequence (P08912 1-532): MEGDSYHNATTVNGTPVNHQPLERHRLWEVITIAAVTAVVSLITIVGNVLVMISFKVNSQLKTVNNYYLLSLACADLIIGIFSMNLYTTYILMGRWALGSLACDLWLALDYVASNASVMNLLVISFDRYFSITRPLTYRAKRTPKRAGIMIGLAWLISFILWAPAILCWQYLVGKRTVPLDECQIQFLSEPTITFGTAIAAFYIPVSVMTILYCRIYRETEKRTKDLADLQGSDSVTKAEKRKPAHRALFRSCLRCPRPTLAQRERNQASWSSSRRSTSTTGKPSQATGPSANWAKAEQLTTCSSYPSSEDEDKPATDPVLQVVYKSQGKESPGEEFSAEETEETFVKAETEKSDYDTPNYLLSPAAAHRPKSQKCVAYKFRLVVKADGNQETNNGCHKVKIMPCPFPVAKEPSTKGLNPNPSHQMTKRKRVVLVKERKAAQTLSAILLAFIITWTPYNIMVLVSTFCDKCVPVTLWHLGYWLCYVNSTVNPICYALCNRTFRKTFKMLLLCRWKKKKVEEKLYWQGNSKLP
PROTOCOL DESCRIPTION: Calcium mobilization concentration-response (IC50 vs EC80 acetylcholine), CHO hM5
Type: cell-based
ASSAY CONDITIONS: CELL LINE hM5; vs EC80 acetylcholine; read-out: IC50
OBSERVABLE: pIC50
# pIC50 is unitless: minus log10 of the molar concentration; print number only

Query: Please look up its pIC50: "Cc1c(S(=O)(=O)N2CCC(c3cn4ncnc4cc3C(F)F)CC2)cnn1C"
Result: 7.20

Query: Please look up its pIC50: "Cc1cc2nccnc2cc1C1CCN(S(=O)(=O)c2cnn(C)c2C)CC1"
Result: 7.14

Query: Please look up its pIC50: "Cc1cc2ncnn2cc1C1CCN(S(=O)(=O)c2cnn(C)c2CC#N)CC1"
Result: 7.14

----------
TARGET: hM5 (Homo sapiens, UniProt P08912)
Construct: expressed in transfected cells
Sequence (P08912 1-532): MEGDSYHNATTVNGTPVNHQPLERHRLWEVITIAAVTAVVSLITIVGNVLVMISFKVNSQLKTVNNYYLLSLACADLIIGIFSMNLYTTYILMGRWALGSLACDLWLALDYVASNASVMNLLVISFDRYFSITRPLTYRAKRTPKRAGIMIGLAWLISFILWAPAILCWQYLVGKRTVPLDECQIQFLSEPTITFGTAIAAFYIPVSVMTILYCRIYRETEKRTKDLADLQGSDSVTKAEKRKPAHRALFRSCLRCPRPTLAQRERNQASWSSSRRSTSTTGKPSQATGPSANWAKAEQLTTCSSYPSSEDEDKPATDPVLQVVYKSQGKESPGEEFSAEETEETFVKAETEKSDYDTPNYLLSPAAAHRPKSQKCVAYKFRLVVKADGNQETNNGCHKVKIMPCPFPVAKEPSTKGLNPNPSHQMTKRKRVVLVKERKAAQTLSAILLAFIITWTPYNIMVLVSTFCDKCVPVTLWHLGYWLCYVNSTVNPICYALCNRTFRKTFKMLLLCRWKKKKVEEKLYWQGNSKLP
PROTOCOL DESCRIPTION: Calcium mobilization concentration-response (IC50 vs EC80 acetylcholine), CHO hM5
Assay type: cell-based
ASSAY CONDITIONS: CELL LINE hM5; calcium mobilization, EC80 acetylcholine addition; read-out: IC50
OBSERVABLE: IC50

Query: Please look up its IC50: O=S(=O)(c1ccc(Cl)nc1)N1CCC(c2cc3cc[nH]c3cn2)CC1 [Compound 94]
Result: > 10 µM

Query: Please look up its IC50: Cc1nc2cc(C)c(C3CCN(S(=O)(=O)c4cn(C)nc4C)CC3)cn2n1 [Compound 79]
Result: > 10 µM

Query: Please look up its IC50: Cc1cc2ncnn2nc1C1CCN(S(=O)(=O)c2ccc3ncsc3c2)CC1 [Compound 185]
Result: > 10 µM

Query: Please look up its IC50: O=S(=O)(c1cnn2c1OCCC2)N1CCC(c2ccncc2)CC1 [Compound 367]
Result: > 10 µM

Query: Please look up its IC50: O=S(=O)(c1ccc2c(c1)CCO2)N1CCC(c2nc3ccccc3[nH]2)CC1 [Compound 3]
Result: > 10 µM

Query: Please look up its IC50: O=S(=O)(c1ccc2ncsc2c1)N1CCC(c2cc3[nH]ccc3cn2)CC1 [Compound 30]
Result: > 10 µM

Query: Please look up its IC50: Cc1cc2ncnn2nc1C1CCN(S(=O)(=O)c2cnc3n2CCC3)CC1 [Compound 208]
Result: > 10 µM

Query: Please look up its IC50: Cc1c(S(=O)(=O)N2CCC(c3cn4ncnc4cc3C(F)(F)F)CC2)cnn1C [Compound 273]
Result: 0.15 µM

Query: Please look up its IC50: Cc1cc(C#N)ncc1C1=CCN(S(=O)(=O)c2cnn(C)c2C)CC1 [Compound 239]
Result: > 10 µM

Query: Please look up its IC50: Cc1c(S(=O)(=O)N2CC=C(c3cn4ncnc4cc3C3CC3)CC2)cnn1C [Compound 148]
Result: 0.786 µM

Query: Please look up its IC50: O=S(=O)(c1cnn2c1CCC2)N1CC=C(c2cc3ncnn3cc2Cl)CC1 [Compound 195]
Result: 0.065 µM

Query: Please look up its IC50: Cc1cc2nccn2nc1C1CCN(S(=O)(=O)c2ccc3c(c2)CCO3)CC1 [Compound 17]
Result: 0.839 µM

Query: Please look up its IC50: Cc1cc2ncnn2cc1C1CCN(S(=O)(=O)c2ccc3c(c2)nnn3C)CC1 [Compound 124]
Result: > 10 µM

Query: Please look up its IC50: Cc1cc2nncn2cc1C1CCN(S(=O)(=O)c2cc3c(cc2F)OCC3)CC1 [Compound 51]
Result: > 10 µM

Query: Please look up its IC50: Cc1cc2nccn2nc1C1=CCN(S(=O)(=O)c2ccc3c(c2)CCO3)CC1 [Compound 34]
Result: > 10 µM
